Each recorded value in this set is attributed to patent US20250296971A1.

target_entity: GIPR (CHO-K1-hGIPR cells) (Homo sapiens, UniProt P48546)
Construct: host or cells: CHO-K1
Sequence (P48546 22-466): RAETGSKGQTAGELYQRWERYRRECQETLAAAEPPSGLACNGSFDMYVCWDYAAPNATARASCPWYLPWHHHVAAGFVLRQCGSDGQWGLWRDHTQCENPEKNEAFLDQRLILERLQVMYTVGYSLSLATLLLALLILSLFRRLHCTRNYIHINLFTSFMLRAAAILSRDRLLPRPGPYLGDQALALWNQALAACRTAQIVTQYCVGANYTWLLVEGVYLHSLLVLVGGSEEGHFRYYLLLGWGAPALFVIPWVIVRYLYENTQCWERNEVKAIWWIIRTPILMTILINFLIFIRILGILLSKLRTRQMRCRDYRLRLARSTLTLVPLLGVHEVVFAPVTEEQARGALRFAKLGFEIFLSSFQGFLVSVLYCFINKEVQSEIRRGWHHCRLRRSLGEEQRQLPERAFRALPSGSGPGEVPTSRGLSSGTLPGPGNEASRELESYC
test_name: FACS binding assay
measurement_conditions: competition with 20 nM GIP-057, 4° C., 1 hour, read-out: pIC50 Category (converted)
*1 amine or outer side, *2 acyl side, *3 side chain or, on linkers, in order; H or OH if unused. Where a SMILES comes first, the peptide text is derived from it. Bridges are numbered along the chain shown (N, C = ends). [ ]: non-standard residue; d: D form. Trp(5-Cl) = N[C@@H](Cc1c[nH]c2ccc(Cl)cc12)C(=O)O; Pyridine(2,6-diCH2) = c1cc(C[*:1])nc(C[*:2])c1; Thz(5,5-Me2) = CC1(C)SCN[C@@H]1C(=O)O; Hyp = O=C(O)[C@@H]1C[C@@H](O)CN1; Thp = NC1(C(=O)O)CCOCC1
measure: IC50

- compound: "CC[C@H](C)[C@@H]1NC(=O)[C@H](Cc2c[nH]c3ccccc23)NC(=O)C2(CCOCC2)NC(=O)[C@@H](NC(=O)[C@@H](CC(C)C)NC(=O)[C@H](CCC(=O)O)NC(=O)[C@@H]2C[C@@H](O)CN2C(=O)[C@H](Cc2c[nH]c3ccc(Cl)cc23)NC(=O)[C@H](Cc2c[nH]c3ccccc23)NC(=O)[C@H](CC(=O)O)NC(C)=O)CSCc2cccc(n2)CSC[C@@H](C(N)=O)NC1=O [GIP-233] (Ac-DW[Trp(5-Cl)][Hyp]E[dL]C[Thp]WIC-NH2; linker 7-11 via Pyridine(2,6-diCH2))"
  target_entity: "GIPR (CHO-K1-hGIPR cells) (Homo sapiens, UniProt P48546)"
  IC50: "< 10 nM"

Switching to the query record.
(Q) Quick check: IC50 on GIPR (CHO-K1-hGIPR cells) (Homo sapiens, UniProt P48546), item CC[C@H](C)[C@@H]1NC(=O)[C@H](CC(C)C)NC(=O)C2(CCOCC2)NC(=O)[C@@H](NC(=O)[C@@H](CC(C)C)NC(=O)[C@H](CCC(=O)O)NC(=O)[C@H]2N(C(=O)[C@H](Cc3c[nH]c4ccc(Cl)cc34)NC(=O)[C@H](Cc3c[nH]c4ccccc34)NC(=O)[C@H](CC(=O)O)NC(C)=O)CSC2(C)C)CSCc2cccc(n2)CSC[C@@H](C(N)=O)NC1=O [GIP-215] (Ac-DW[Trp(5-Cl)][Thz(5,5-Me2)]E[dL]C[Thp]LIC-NH2; linker 7-11 via Pyridine(2,6-diCH2)) ?
(A) < 10 nM
